B1: CPOX (parent)
chain: HAPTIHFNYRYFEVEEADGNKQWW

- Variants of: B1
- experiment_notes: protein stability index of a GFP-peptide fusion (GPS, HEK-293T) (PSI 1-6); higher = more stable;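 note: lentivirally expressed fusions sorted by FACS into six bins by GFP to DsRed ratio, PSI derived from sequencing read proportions per bin multiplied by bin number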
- run_parameters: c terminus: a fixed tail appended
endpoint: protein stability index

As a guide, the following entries are already answered.
HAPTIHFNYRYCEVEEADGNKQWW [F12C]: 2.02
HAPTIHFTYRYFEVEEADGNKQWW [N8T]: 1.87
HAPQIHFNYRYFEVEEADGNKQWW [T4Q]: 2.66
HAPTIHFNYRYYEVEEADGNKQWW [F12Y]: 2.84
HAPTKHFNYRYFEVEEADGNKQWW [I5K]: 2.29
VAPTIHFNYRYFEVEEADGNKQWW [H1V]: 2.69
HAPTIHFNYRYFEVEELDGNKQWW [A17L]: 1.96
HYPTIHFNYRYFEVEEADGNKQWW [A2Y]: 2.33

For HAPTIHFNYRYFLVEEADGNKQWW [E13L] , write its protein stability index.
1.41

For DAPTIHFNYRYFEVEEADGNKQWW [H1D] , write its protein stability index.
1.84

Return protein stability index for the following variant: HAPTIHFNYRYFEVEEADTNKQWW [G19T]
2.26
